target: T1, recombinant human laminin-211 (human, UniProt P24043 23-3122; P07942 22-1786; P11047 34-1609); test: ELISA; plates coated with 50 nM GF or chemokine in PBS; 10 nM laminin isoform in PBS added; bound laminin detected with anti-LAMC1 or anti-LAMA3 polyclonal antibody; A450 signals greater than 0.1 taken as binding; BSA-coated wells as control; conditions: both partners purified
T1 construct: laminin subunit alpha-2, human; chain told by the isoform's name; laminin subunit beta-1, human; laminin subunit gamma-1, human; source: bought: BioLamina (recombinant human, >95% purity); copies: + +

Binder: BMP-2 (ligand, UniProt P12643 283-396, looked up, bone morphogenetic protein 2, bought in its mature form; source: bought: PeproTech; produced in Escherichia coli) QAKHKQRKRLKSSCKRHPLYVDFSDVGWNDWIVAPPGYHAFYCHGECPFPLADHLNSTNHAIVQTLVNSVNSKIPKACCVPTELSAISMLYLDENEKVVLKNYQDMVVEGCGCR
binding result: binds
--
Binder: FGF-18 (ligand, UniProt O76093 28-207, looked up, fibroblast growth factor 18, bought in its mature form; source: bought: PeproTech; produced in Escherichia coli) EENVDFRIHVENQTRARDDVSRKQLRLYQLYSRTSGKHIQVLGRRISARGEDGDKYAQLLVETDTFGSQVRIKGKETEFYLCMNRKGKLVGKPDGTSKECVFIEKVLENNYTALMSAKYSGWYVGFTKKGRPRKGPKTRENQQDVHFMKRYPKGQPELQKPFKYTTVTKRSRRIRPTHPA
binding result: binds
--
Binder: FGF-7 (ligand, UniProt P21781 32-194, looked up, fibroblast growth factor 7, bought in its mature form; source: bought: PeproTech; produced in Escherichia coli) CNDMTPEQMATNVNCSSPERHTRSYDYMEGGDIRVRRLFCRTQWYLRIDKRGKVKGTQEMKNNYNIMEIRTVAVGIVAIKGVESEFYLAMNKEGKLYAKKECNEDCNFKELILENHYNTYASAKWTHNGGEMFVALNQKGIPVRGKKTKKEQKTAHFLPMAIT
binding result: binds
--
Binder: NT-3 (ligand, UniProt P20783 139-257, looked up, neurotrophin-3, bought in its mature form; also called neurotrophin NT-3; source: bought: PeproTech; produced in Escherichia coli) YAEHKSHRGEYSVCDSESLWVTDKSSAIDIRGHQVTVLGEIKTGNSPVKQYFYETRCKEARPVKNGCRGIDDKHWNSQCKTSQTYVRALTSENNKLVGWRWIRIDTSCVCALSRKIGRT
binding result: binds
